Where do the numbers come from? From paper PMC10184313.

Below, each entry is listed with its recorded Inhibition (%) PO.
Molecular target: A. viridans PO (Aerococcus viridans)
Sequence (A9X9K8 1-592): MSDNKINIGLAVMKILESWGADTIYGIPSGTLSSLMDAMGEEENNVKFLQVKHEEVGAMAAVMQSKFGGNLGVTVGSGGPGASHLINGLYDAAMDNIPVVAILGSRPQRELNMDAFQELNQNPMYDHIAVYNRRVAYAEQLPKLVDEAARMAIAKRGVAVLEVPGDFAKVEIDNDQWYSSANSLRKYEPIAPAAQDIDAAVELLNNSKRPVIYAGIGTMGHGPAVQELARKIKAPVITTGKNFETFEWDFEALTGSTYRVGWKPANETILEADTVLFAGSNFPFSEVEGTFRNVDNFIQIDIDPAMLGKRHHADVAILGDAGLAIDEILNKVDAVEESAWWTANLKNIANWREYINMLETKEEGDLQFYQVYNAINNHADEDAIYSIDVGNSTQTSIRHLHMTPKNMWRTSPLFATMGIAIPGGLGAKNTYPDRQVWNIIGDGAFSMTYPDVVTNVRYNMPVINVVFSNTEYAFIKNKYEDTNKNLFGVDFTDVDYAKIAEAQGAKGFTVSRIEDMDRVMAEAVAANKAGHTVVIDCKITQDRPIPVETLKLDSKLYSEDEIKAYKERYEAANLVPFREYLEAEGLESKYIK
Assay: A. viridans PO inhibitory activity assay (quinoneimine dye)
Type: biochemical
Conditions: [Compound] = 250 μM, [ThDP] = 50 μM

Study these solved cases before continuing.
Compound: Cc1ncc(Cn2cc(CCNC(=O)c3cccc(-c4noc(C(F)(F)F)n4)c3)nn2)c(N)n1 [Compound 19a]
Inhibition (%) PO: < 20%
--
Compound: Cc1ncc(Cn2cc(CCCC(=O)Nc3ccccc3N)nn2)c(N)n1 [Compound 26b]
Inhibition (%) PO: < 20%
--
Compound: Cc1ncc(Cn2cc(CCn3cc(-c4ccc(F)cc4)nn3)nn2)c(N)n1 [Compound 16a]
Inhibition (%) PO: < 20%
--
Compound: Cc1ncc(Cn2cc(CCCCn3cc(-c4ccccc4)nn3)nn2)c(N)n1 [Compound 15c]
Inhibition (%) PO: < 20%

Exercise: Give A. viridans PO (Aerococcus viridans) Inhibition (%) PO for Cc1ncc(Cn2cc(CCOC(=O)c3cccc(-c4noc(C(F)(F)F)n4)c3)nn2)c(N)n1 [Compound 13a]
Solution: < 20%

Exercise: Give A. viridans PO (Aerococcus viridans) Inhibition (%) PO for Cc1ncc(Cn2cc(CCCn3cc(-c4ccc(F)cc4)nn3)nn2)c(N)n1 [Compound 16b]
Solution: < 20%

Exercise: Give A. viridans PO (Aerococcus viridans) Inhibition (%) PO for Cc1ncc(Cn2cc(CCOC(=O)c3cccc(C#N)c3)nn2)c(N)n1 [Compound 14a]
Solution: < 20%

Exercise: Give A. viridans PO (Aerococcus viridans) Inhibition (%) PO for COc1cccc(C(=O)NCCCCc2cn(Cc3cnc(C)nc3N)nn2)c1 [Compound 21c]
Solution: < 20%

Exercise: Give A. viridans PO (Aerococcus viridans) Inhibition (%) PO for Cc1ncc(Cn2cc(CCn3cc(-c4ccccc4)nn3)nn2)c(N)n1 [Compound 15a]
Solution: 22 ± 2%

Exercise: Give A. viridans PO (Aerococcus viridans) Inhibition (%) PO for Cc1ncc(Cn2cc(CCCCNS(=O)(=O)C(F)(F)F)nn2)c(N)n1 [Compound 18c]
Solution: 22 ± 4%
